Taken from patent US8445689B2.

system: Green Peach Aphid (Myzus persicae); assay: Insecticidal test for green peach aphid in foliar spray assay on cabbage; type: in vivo; conditions: 72 h, 200 ppm foliar spray on cabbage seedlings, graded after 3 d, corrected % control (Abbott), read-out: Rating against green peach aphid on cabbage (foliar spray)
// reported pest or weed control at 200 ppm for each item listed

Compound: CC(c1ccc(C(F)(F)F)nc1)S(C)(=O)=NC(=S)NC1CCCCC1 (stereo not drawn) [Compound 7]
pest or weed control at 200 ppm: 80 to 100%

Compound: CC(C)O/N=C(\N)N=S(C)(=O)C(C/C=C/Cl)c1ccc(Cl)nc1 (stereo not drawn) [Compound 64]
pest or weed control at 200 ppm: < 80%

Compound: CCO/N=C(\N)N=S(C)(=O)C(C)c1ccc(C(F)(F)F)nc1 (stereo not drawn) [Compound 49]
pest or weed control at 200 ppm: 80 to 100%

Compound: CC(c1ccc(C(F)(F)F)nc1)S(C)(=O)=NC(=S)NC(=O)c1ccco1 (stereo not drawn) [Compound 18]
pest or weed control at 200 ppm: 80 to 100%

Compound: CC(C)NC(=S)N=S(C)(=O)C(C)c1ccc(C(F)(F)F)nc1 (stereo not drawn) [Compound 14]
pest or weed control at 200 ppm: 80 to 100%

Compound: COc1ccc(CO/N=C(\N)N=S(C)(=O)C(C)c2ccc(C(F)(F)F)nc2)cc1 (stereo not drawn) [Compound 47]
pest or weed control at 200 ppm: 80 to 100%

Compound: CS(=O)(Cc1ccc(Cl)nc1)=NC(N)=S (stereo not drawn) [Compound 31]
pest or weed control at 200 ppm: 80 to 100%

Compound: CC(c1ccc(C(F)(F)F)nc1)S(C)(=O)=N/C(N)=N/O (stereo not drawn) [Compound 38]
pest or weed control at 200 ppm: 80 to 100%

Compound: COC(=O)CCC(=O)NC(=S)N=S(C)(=O)C(C)c1ccc(C(F)(F)F)nc1 (stereo not drawn) [Compound 37]
pest or weed control at 200 ppm: 80 to 100%

Compound: CC(c1ccc(C(F)(F)F)nc1)S(C)(=O)=NC(=S)NC1CC1 (stereo not drawn) [Compound 15]
pest or weed control at 200 ppm: 80 to 100%

Compound: CCOC(=O)CNC(=S)N=S(C)(=O)C(C)c1ccc(C(F)(F)F)nc1 (stereo not drawn) [Compound 12]
pest or weed control at 200 ppm: 80 to 100%

Compound: CC(c1ccc(C(F)(F)F)nc1)S(C)(=O)=N/C(N)=N/OCCCCF (stereo not drawn) [Compound 55]
pest or weed control at 200 ppm: 80 to 100%

Compound: CC(c1ccc(C(F)(F)F)nc1)S(C)(=O)=N/C(=N/OCc1ccc(Cl)cc1)NCc1ccc(Cl)cc1 (stereo not drawn) [Compound 57]
pest or weed control at 200 ppm: < 80%

Compound: CC(c1ccc(C(F)(F)F)nc1)S(C)(=O)=NC(=S)Nc1ccc(OC(F)(F)F)cc1 (stereo not drawn) [Compound 21]
pest or weed control at 200 ppm: < 80%

Compound: CC(c1ccc(C(F)(F)F)nc1)S(C)(=O)=NC(=O)C(C)(C)C (stereo not drawn) [Compound 67]
pest or weed control at 200 ppm: < 80%

Compound: COC(=O)C(C)NC(=S)N=S(C)(=O)C(C)c1ccc(C(F)(F)F)nc1 (stereo not drawn) [Compound 10]
pest or weed control at 200 ppm: 80 to 100%

Compound: CC(c1ccc(C(F)(F)F)nc1)S(C)(=O)=NC(=S)NC(=O)c1ccc(Cl)cc1 (stereo not drawn) [Compound 16]
pest or weed control at 200 ppm: 80 to 100%

Compound: CC(c1ccc(C(F)(F)F)nc1)S(C)(=O)=N/C(N)=N/OCCF (stereo not drawn) [Compound 59]
pest or weed control at 200 ppm: 80 to 100%
